Exercise: state measured growth for each of the molecules provided.
system: NCI/ADR-RES ovarian; test: NCI-60 one-dose screen, 48 h (100 = growth as untreated, 0 = no growth, -100 = all killed); details: 10 µM unless noted
About 83,000 compounds went through this panel and 20% of them were active in at least one assay; those are over-represented in the sample as a whole.
Numbers only, in %.

COc1ccccc1N1CCN(C(=O)c2ccc3nc(NC(=O)c4ccc(NCCc5ccccc5)c([N+](=O)[O-])c4)sc3c2)CC1
89.6

Your task in this section: give growth for each listed record.
1. O=S(=O)(NCCCNc1nccc(-c2c(-c3cccc(O)c3)nc3occn23)n1)c1ccc(Br)cc1
2. C[C@H]1[C@H](C)CC[C@]2(CO)CC[C@]3(C)C(=CC[C@@H]4[C@@]5(C)Cc6c([nH]c7ccccc67)C(C)(C)[C@@H]5CC[C@]43C)[C@H]12
3. CCOC(=O)N1CCN(CCCCl)CC1

Solution:
1: 107; 2: 90.6; 3: 102
